Values compiled from ChEMBL document CHEMBL3217432.

# system: Fructose-1,6-bisphosphatase 1 (Rattus norvegicus, UniProt P19112)
# Sequence (P19112 whole entry): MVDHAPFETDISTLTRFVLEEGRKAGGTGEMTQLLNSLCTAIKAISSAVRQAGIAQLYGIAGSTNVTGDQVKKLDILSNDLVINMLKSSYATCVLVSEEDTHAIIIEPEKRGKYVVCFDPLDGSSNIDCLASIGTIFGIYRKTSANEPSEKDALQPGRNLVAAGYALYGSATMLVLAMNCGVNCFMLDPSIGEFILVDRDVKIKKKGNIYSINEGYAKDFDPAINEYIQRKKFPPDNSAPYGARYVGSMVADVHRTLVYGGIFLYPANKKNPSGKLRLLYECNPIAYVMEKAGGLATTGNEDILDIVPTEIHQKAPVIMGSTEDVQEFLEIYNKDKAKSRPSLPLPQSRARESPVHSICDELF
pIC50: −log10 of the molar value.
observed.property: pIC50

Check out these entries, answers already filled in.
structure.as.smiles: C=CCc1oc(N)nc1-c1ccc(P(=O)(O)O)o1
system: Fructose-1,6-bisphosphatase 1 (Rattus norvegicus, UniProt P19112)
measured.value: 5.52

structure.as.smiles: Nc1nc(-c2ccc(P(=O)(O)O)o2)c(C(=O)OCc2ccccc2)o1
system: Fructose-1,6-bisphosphatase 1 (Rattus norvegicus, UniProt P19112)
measured.value: 5.65

structure.as.smiles: CC(C)(C)Sc1oc(N)nc1-c1ccc(P(=O)(O)O)o1
system: Fructose-1,6-bisphosphatase 1 (Rattus norvegicus, UniProt P19112)
measured.value: 5.77

structure.as.smiles: CCCCCc1oc(N)nc1-c1ccc(P(=O)(O)O)o1
system: Fructose-1,6-bisphosphatase 1 (Rattus norvegicus, UniProt P19112)
measured.value: 5.57

A = CCCCc1oc(N)nc1-c1ccc(P(=O)(O)O)o1
B = Nc1nc(-c2ccc(P(=O)(O)O)o2)c(Cc2ccccc2)o1
Prompt line: Could you check which of A and B has a smaller value for pIC50? Answer by quoting the chosen item's label.
Response line: B

----------
# system: Fructose-1,6-bisphosphatase 1 (Homo sapiens)
# Sequence (P09467 whole entry): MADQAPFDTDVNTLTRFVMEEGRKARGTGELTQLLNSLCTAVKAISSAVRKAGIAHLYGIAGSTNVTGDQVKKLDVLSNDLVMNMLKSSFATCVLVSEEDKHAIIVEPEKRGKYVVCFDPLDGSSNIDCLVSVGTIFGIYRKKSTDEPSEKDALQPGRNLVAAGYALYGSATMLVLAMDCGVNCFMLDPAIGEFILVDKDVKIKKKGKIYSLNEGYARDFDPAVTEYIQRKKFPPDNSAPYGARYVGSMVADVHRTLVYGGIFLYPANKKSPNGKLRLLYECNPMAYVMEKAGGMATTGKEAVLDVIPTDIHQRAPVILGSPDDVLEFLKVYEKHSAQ
observed.property: IC50 (nM)

Example entries begin here.
structure.as.smiles: Nc1nc(-c2ccc(P(=O)(O)O)o2)c(CC2CCCCC2)o1
uom: nM
IC50: 320
//
structure.as.smiles: Nc1nc(C(=O)OCP(=O)(O)O)co1
uom: nM
IC50: 7000
//
structure.as.smiles: CC(C)OC(=O)c1oc(N)nc1-c1ccc(P(=O)(O)O)o1
uom: nM
IC50: 40

I = CCCc1oc(N)nc1C(=O)OCP(=O)(O)O
II = Cc1oc(N)nc1C(=O)OCP(=O)(O)O
Prompt line: Param metric = IC50; output whichever of I , II has the minimum value. State the label of the item chosen.
Response line: I

I = O=C(OCP(=O)(O)O)c1ncoc1-c1ccccc1
II = CCCCCc1oc(N)nc1C(=O)OCP(=O)(O)O
III = CC(C)(C)C(=O)c1oc(N)nc1-c1ccc(P(=O)(O)O)o1
IV = Nc1nc(-c2ccc(P(=O)(O)O)o2)c(Sc2ccccc2)o1
Prompt line: Ascending by IC50, please. Provide the ranking by listing each label in its place in the requested order.
Response line: II, III, IV, I

I = Nc1nc(-c2ccc(P(=O)(O)O)o2)c(Cc2cccs2)o1
II = Nc1nc(-c2ccc(P(=O)(O)O)o2)co1
Prompt line: Given the listed items, does I or II have the lesser reported IC50? Write the label of whichever entry you select.
Response line: I
(I: 260 nM, II: 10000 nM)

A = CC(C)Cc1oc(O)nc1-c1ccc(P(=O)(O)O)o1
B = CCc1nc(-c2ccc(P(=O)(O)O)o2)c(CC(C)C)o1
Prompt line: Pick the one with the larger IC50: A vs B Label of pick, please.
Response line: A
(A: 10000 nM, B: 950 nM)

1 = CCSC(=O)c1oc(N)nc1-c1ccc(P(=O)(O)O)o1
2 = CC(C)Cc1oc(N(C)C)nc1-c1ccc(P(=O)(O)O)o1
Prompt line: // compare: 1 vs 2 , metric IC50, want the smaller Answer by quoting the chosen item's label.
Response line: 1

I = Cc1nc(C(=O)OCP(=O)(O)O)c(C(F)(F)F)o1
II = CC(C)Sc1oc(N)nc1-c1ccc(P(=O)(O)O)o1
Prompt line: For the pair I and II , which entry has the numerically smaller recorded IC50? Response format: the label of the selected entry.
Response line: II
